Data credit: paper PMC12670160

# System: M. mycetomatis strain mm55
# assay_setup: primary screen, metabolic activity vs growth control; 96 h, 2 µM; inhibitor
Where a name gives a salt, the structure may show the parent alone. Screen size: about 5,300 compounds; about 130 (2.5%) showed an effect of 50% or more. For the sample, strong results were picked, then their nearest neighbours and some compounds at random.
outcome_measure: % viability (%)
Answers are plain numbers, in %.

Cc1ccc(NC2=CC(=O)c3sc(C)nc3C2=O)cc1 ... 94.75

Please state, for each entry, its recorded % viability.
1. C[C@]12C=CC(=O)C=C1CCC1C2[C@@H](O)C[C@@]2(C)C1CC[C@]2(O)C(=O)CO (stereo partly shown)
2. COc1ccc(C2Sc3ccccc3N(CCN(C)C)C(=O)C2OC(C)=O)cc1 (stereo not shown) [ONC0005348, diltiazem hydrochloride]

[A]
112.6
61.39

For CCN(CC)CCNC(=O)COc1ccc(OC)cc1 [ONC0000676, mefexamide hydrochloride] the molecule record lists % viability as 93.51

###

# Test system: M. mycetomatis strain mm55
# assay_setup: primary screen, metabolic activity vs growth control; 96 h, 2 µM; inhibitor
Out of some 5,300 compounds screened, about 130 (2.5%) showed an effect of 50% or more. For the sample, strong results were picked, then their nearest neighbours and some compounds at random.
Assign % viability to each entry below.
Answers are plain numbers, in %.

Example cases with answers are listed next.
CC(C)(O)c1ccn2c(-c3ccc(F)c(-c4ccc(F)cc4C#N)c3)cnc2c1F ... 78.09
CN1CCC2=C(C1)C(c1ccccc1)c1ccccc12 (centres unmarked) ... 47.96
O=C(O)c1ccc(CN2CCC(CN[C@@H]3C[C@H]3c3ccccc3)CC2)cc1 ... 48.21
COc1cc([S+](C)[O-])ccc1-c1nc2ncccc2[nH]1 (centres unmarked) ... 88.35
Cc1cnc(NC(=O)c2cc(Oc3cnc(C(=O)N(C)C)nc3)c3cc(C)oc3c2)cn1 ... 103.7
CC(Nc1ncnc2nc[nH]c12)c1cc2ccc(F)cc2nc1-c1ccccn1 (centres unmarked) ... 156.7

Please state, for each entry, its recorded % viability.
1. c1ccc(NCc2ccc(CNc3ccccn3)cc2)nc1
2. O=C(COc1ccc(C(=O)c2ccccc2)cc1)NC1CCN(Cc2ccccc2)CC1

[A]
1: 63.57; 2: 92.46

###

# Tested on: M. mycetomatis strain mm55
# assay_setup: primary screen, metabolic activity vs growth control; 96 h, 2 µM; inhibitor
Counter-ions that a name gives are not always drawn. The whole screen tested about 5,300 compounds, of which about 130 (2.5%) showed an effect of 50% or more. The sample holds strong results, similar compounds and a random draw of the others, so the mix is not that of the screen.
Assign % viability to each entry below.
One number for each entry, in %.

Example cases with answers are listed next.
C[C@H](O[C@H]1OCCN(Cc2n[nH]c(=O)[nH]2)[C@H]1c1ccc(F)cc1)c1cc(C(F)(F)F)cc(C(F)(F)F)c1 [ONC0004612, aprepitant mk0869] ... 34.22
[H]/N=C(\N/C(=N/[H])NCCCCCCNC(=N)NC(=N)Nc1ccc(Cl)cc1)Nc1ccc(Cl)cc1 [ONC0000326, chlorhexidine dihydrochloride] ... 77.24
CCCCCCCCCCCCCCCC(=O)OC1C(SC)OC(C(NC(=O)C2CC(CCC)CN2C)C(C)Cl)C(O)C1O (centres unmarked) [ONC0004643, clindamycin palmitate hcl] ... 84.71
N#C/C(=C1/SCC(c2ccccc2Cl)S1)n1ccnc1 (centres unmarked) ... 3.92
CN1C(=O)C(Cc2c[nH]c3ccccc23)NC1=S (centres unmarked) ... 40.84
CCCN(CCC)CCc1ccc(OC)c(OCCc2ccccc2)c1 ... 62.29
CCCCN(CCCC)CC(O)c1cc(Cl)cc2c1-c1ccc(Cl)cc1/C2=C/c1ccc(Cl)cc1 (centres unmarked) ... 75.53
Cc1csc2c(N[C@@H](C)CN3CCN(S(=O)(=O)c4ccc(Cl)c(Cl)c4)CC3)ncnc12 ... 45.06

Please state, for each entry, its recorded % viability.
1. C[C@H](N[C@@H](CCc1ccccc1)C(=O)O)C(=O)N1CCC[C@H]1C(=O)O
2. c1ccc2c(Cc3c[nH]c4ccccc34)c[nH]c2c1
3. CC(=O)Nc1ccccc1 [ONC0000688, acetanilide]

[A]
1. 70.49
2. 68.22
3. 114.7

Please state, for each entry, its recorded % viability.
1. CN1C(=O)N[C@H](Cc2c[nH]c3c(Cl)cccc23)C1=O
2. C[C@@H](O[C@H]1OCCN(Cc2nc(O)n(P(=O)(O)O)n2)[C@H]1c1ccc(F)cc1)c1cc(C(F)(F)F)cc(C(F)(F)F)c1 [ONC0004322, fosaprepitant dimeglumine salt]
3. CCNCCS(=O)(=O)NC[C@@]1(c2ccccc2)SC(NC(=O)C(C)(C)C)=NN1C(=O)C(C)(C)C

[A]
[58.02, 108.4, 77.28]

###

# System: M. mycetomatis strain mm55
# assay_setup: primary screen, metabolic activity vs growth control; 96 h, 2 µM; inhibitor
Structures can show the parent of a compound that is named as a salt. The whole screen tested about 5,300 compounds, of which about 130 (2.5%) showed an effect of 50% or more. For the sample, strong results were picked, then their nearest neighbours and some compounds at random.
Strictly below 80% in % viability: 1. Otherwise: -1.

Please review the entries below; each comes with its answer.
O[C@H](CNC[C@@H](O)[C@H]1CCc2cc(F)ccc2O1)[C@@H]1CCc2cc(F)ccc2O1 [ONC0004039, nebivolol hydrochloride] ... -1
CC(O)c1cc(C(=O)N[C@@H](C)Cn2ccc(-c3ccc(C#N)c(Cl)c3)n2)[nH]n1 (stereo partly shown) [ONC0005059, odm201] ... -1
Oc1c(I)cc(I)c2cccnc12 [ONC0000463, iodoquinol] ... 1
NC(Cc1ccc(O)cc1)C(=O)O (stereo not shown) [ONC0003385, dltyrosine] ... 1

Okay, now this compound:
[Q] Below 80% on % viability? Entry CC(C(=O)O)c1ccc2c(c1)Cc1ccccc1-2 (stereo not shown) [ONC0003773, cicloprofen]
[A] -1

###

# System: M. mycetomatis strain mm55
# assay_setup: primary screen, metabolic activity vs growth control; 96 h, 2 µM; inhibitor
Out of some 5,300 compounds screened, about 130 (2.5%) showed an effect of 50% or more. The full list was thinned out, with strong results kept by preference.
Assign % viability to each entry below.
Numbers only, in %.

Example cases with answers are listed next.
Oc1cccc(Nc2ccc(Nc3cccc(O)c3)nn2)c1 ... 67.52
C/C=C(\C)C(=O)O[C@H]1[C@H](OC(C)=O)[C@@]2(CO)C(CC1(C)C)C1=CCC3[C@@]4(C)CCC(O[C@@H]5O[C@H](C(=O)O)[C@@H](O[C@@H]6O[C@H](CO)[C@@H](O)[C@H](O)[C@H]6O)[C@H](O)[C@H]5O[C@@H]5O[C@H](CO)[C@@H](O)[C@H](O)[C@H]5O)[C@](C)(CO)C4CC[C@@]3(C)[C@]1(C)C[C@H]2O (stereo partly drawn) ... 67.54

Kindly review the next compound as well.
For CNc1nc(-c2ccc3c(N)n[nH]c3c2)cc(N2C[C@@H](C(=O)NC3CCCCC3)CC[C@H]2C)n1 the compound record lists % viability as 37.41

###

# System: M. mycetomatis strain mm55
# assay_setup: primary screen, metabolic activity vs growth control; 96 h, 2 µM; inhibitor
The campaign covered roughly 5,300 compounds. About 130 (2.5%) showed an effect of 50% or more. The sample holds strong results, similar compounds and a random draw of the others, so the mix is not that of the screen.
Strictly below 80% in % viability: yes (1). Otherwise: no (0).

Please review the entries below; each comes with its answer.
CC(C)(C)c1ccc(-c2nc3c(N4CCN(Cc5ccc6nccnc6c5)CC4)cccc3[nH]2)cc1 ... no (0)
Nc1c[n+](N2CCOCC2)no1 ... yes (1)
COc1ccccc1OCC(O)CNC(C)C (stereo not shown) ... yes (1)
COc1cc(-c2ccc(/N=N/c3ccc4c(S(=O)(=O)O)cc(S(=O)(=O)O)c(N)c4c3O)c(OC)c2)ccc1/N=N/c1ccc2c(S(=O)(=O)O)cc(S(=O)(=O)O)c(N)c2c1O ... no (0)
C/C(=C\c1csc(C)n1)[C@H]1C[C@@H]2O[C@]2(C)CCC[C@H](C)[C@H](O)[C@@H](C)C(=O)C(C)(C)[C@H](O)CC(=O)O1 ... yes (1)
CN(C)C/C=C/C(=O)Nc1cccc(C(=O)Nc2cccc(Nc3ncc(Cl)c(-c4c[nH]c5ccccc45)n3)c2)c1 ... yes (1)

[Q] Below 80% on % viability? Entry COc1nc(C)nc(Cl)c1N=C1NCCN1
[A] no (0)

[Q] Below 80% on % viability? Entry CC(C)Oc1cccc(CC(=O)N2CCC[C@](CC[N+]34CCC(c5ccccc5)(CC3)CC4)(c3ccc(Cl)c(Cl)c3)C2)c1
[A] yes (1)

[Q] Below 80% on % viability? Entry Cl.O=C(c1ccc(-c2ccc(Cl)cc2)o1)N(Cc1ccccn1)c1ccc(N2CCNCC2)cc1 [ONC0002178, mk2in1 hydrochloride]
[A] yes (1)

[Q] Below 80% on % viability? Entry NC(=O)c1cc[n+](CC2=C(C(=O)O)N3C(=O)[C@@H](NC(=O)Cc4cccs4)[C@H]3SC2)cc1
[A] no (0)
